Assay: […] peak time for H2S release in pH 7.4 PBS buffer containing 10% THF incubated for 2 hrs at room temperature in presence of 1 mM GSH by methylene blue based UV-Vis spectrometry
Assay type: physicochemical
Details: pH 7.4, 2 h
# label = Satisfied if Time < 70 min else Not satisfied

Below are worked cases with known answers.
-- ask Decide: Time of `O=C(NSC(=O)c1ccccc1)c1ccc(F)cc1` strictly below 70 min?
-- reply Satisfied

-- ask Report whether reported Time is lower than 70 min (strictly) for `COC(=O)c1ccc(C(=O)SNC(=O)c2ccccc2)cc1`
-- reply Satisfied

-- ask Just wondering, is Time of `O=C(NSC(=O)c1cccc(Cl)c1)c1ccccc1` below 70 min?
-- reply Satisfied

Continuing:
-- ask Lab log: compare recorded Time with 70 min; is it strictly lower for `Cc1ccccc1C(=O)NSC(=O)c1ccccc1` ?
-- reply Satisfied

-- ask Consider the compound `Cc1ccc(NC(=O)NSC(=O)c2ccccc2)cc1` . Is its Time strictly less than 70 min?
-- reply Not satisfied

-- ask Say whether its Time is strictly beneath 70 min. Entry: `O=C(Cc1ccccc1)SNC(=O)c1ccccc1`
-- reply Satisfied

###

Assay: […] peak time for H2S release in pH 7.4 PBS buffer containing 10% THF incubated for 2 hrs at room temperature in presence of 1 mM GSH by methylene blue based UV-Vis spectrometry
Assay type: physicochemical
Details: pH 7.4, 2 h
Returns one of yes (1) or no (0); yes (1) when Time is >= 70 min.

A selection of reference data follows.
-- ask Confirm if Time reported for the compound `O=C(NSC(=O)C1CCCC1)c1ccccc1` is 70 min or above.
-- reply no (0)

-- ask Reported Time at or above 70 min? `CCCC(=O)NSC(=O)c1ccccc1`
-- reply no (0)

-- ask Please tell me: is the compound `O=C(NSC(=O)C1CCCCC1)c1ccccc1` at or over 70 min in terms of Time?
-- reply yes (1)

-- ask Can `CC(=O)NSC(=O)c1ccccc1` be said to have Time at or above 70 min?
-- reply no (0)

-- ask Reported Time at or above 70 min? `Cc1ccc(C(=O)SNC(=O)Nc2ccccc2)cc1`
-- reply yes (1)

-- ask Dear colleague, could you confirm whether `COc1ccc(C(=O)SNC(=O)c2ccccc2)cc1` has Time at or above 70 min?
-- reply no (0)

-- ask Quick check, Time >= 70 min? `COc1ccccc1C(=O)SNC(=O)c1ccccc1`
-- reply yes (1)

-- ask Time >= 70 min for `COc1cccc(C(=O)SNC(=O)c2ccccc2)c1` ?
-- reply yes (1)

Switching to the query record.
-- ask Decide: Time of `CC(C)(C)C(=O)SNC(=O)c1ccccc1` >= 70 min?
-- reply yes (1)
